Assay: PK Phase (Group 2): plasma concentrations and pharmacokinetics of Compound 18 and its metabolite Compound 4 after once daily ocular instillation of Compound 18 nanosuspension for 7 days
Format: in vivo, New Zealand white rabbits
Details: male, New Zealand white, rabbit, plasma, topical or ocular, 0.8 mg/kg, plasma, Day 1, Compound 18 0.8 mg/kg ocular instillation; animal 207665 (one rabbit reportable)
metric: half-life

// lookup half-life for CCCc1nn(C)c2c(=O)[nH]c(-c3cc(S(=O)(=O)N4CC(CCCO)C4)ccc3OCC)nc12 [Compound 4]
24.8 min

###

Test: PK Phase (Group 2): plasma concentrations and pharmacokinetics of Compound 18 and its metabolite Compound 4 after once daily ocular instillation of Compound 18 nanosuspension for 7 days
Type: in vivo, New Zealand white rabbits
Details: male, New Zealand white, rabbit, plasma, other: ocular instillation (eye drop), 0.821 mg/kg/day, 4 h; Mean of 4 animals, BQL set to 0; read-out: Day 1 Compound 18 Plasma Concentration
Experimental: This example illustrates the procedures and results for the levels of Compound 18 and its metabolite Compound 4 in plasma and ocular tissues of normotensive rabbits following ocular instillation of Compound 18 once daily for 7 consecutive days. […] Plasma and tissue samples from treated animals (Groups 1-3) were analyzed for Compound 18 and its metabolite Compound 4 concentrations by LC-MS/MS. […] BA Assay: Quantitation Range 0.05 to 100 ng/mL for Compound 18, 0.15 to 100 ng/mL for Compound 4. […]
metric: concentration at 4 h (ng/mL)
I only need the number, in ng/mL, no unit after it.

// lookup concentration at 4 h for `CCCc1nn(C)c2c(=O)[nH]c(-c3cc(S(=O)(=O)N4CC(CCCO[N+](=O)[O-])C4)ccc3OCC)nc12`
0.0164

###

Test: Metabolic stability in human liver microsomes
Format: in vitro ADME
Conditions: 37° C., 0-60 minutes
metric: CLint scaled at 1 µM
For clarity, give the value followed by its unit.

// lookup CLint scaled at 1 µM for `CCCc1nn(C)c2c(=O)[nH]c(-c3cc(S(=O)(=O)N4CC(NCCCO)C4)ccc3OCC)nc12`
55 mL/min/kg

// lookup CLint scaled at 1 µM for `CCCc1nn(C)c2c(=O)[nH]c(-c3cc(S(=O)(=O)N4CC(CCCO[N+](=O)[O-])C4)ccc3OCC)nc12`
934 mL/min/kg

// lookup CLint scaled at 1 µM for `CCCc1nn(C)c2c(=O)[nH]c(-c3cc(S(=O)(=O)N4CC(CCCO)C4)ccc3OCC)nc12`
357 mL/min/kg

###

Record form. Attribute: IC50. Fill in for each entry.
Target: human PDE-5A1 (Homo sapiens, UniProt O76074)
Test: Human PDE-5A1 inhibition assay (fluorescence polarization, FAM-cGMP)
Format: biochemical
Conditions: read-out: IC50 (μM) PDE5A1

human PDE-5A1 (Homo sapiens, UniProt O76074) / IC50 / `CCCc1nn(C)c2c(=O)[nH]c(-c3cc(S(=O)(=O)N4CC(NCCO[N+](=O)[O-])C4)ccc3OCC)nc12` : value?
< 0.01 µM

human PDE-5A1 (Homo sapiens, UniProt O76074) / IC50 / `CCCc1nc(C)c2c(=O)[nH]c(-c3cc(S(=O)(=O)N4CC(N(C)CCCO[N+](=O)[O-])C4)ccc3OCC)nn12` : value?
< 0.01 µM

human PDE-5A1 (Homo sapiens, UniProt O76074) / IC50 / `CCCc1nc(C)c2c(=O)[nH]c(-c3cc(S(=O)(=O)N4CC(CCCO[N+](=O)[O-])C4)ccc3OCC)nn12` : value?
< 0.01 µM

human PDE-5A1 (Homo sapiens, UniProt O76074) / IC50 / `CCCc1nc(C)c2c(=O)[nH]c(-c3cc(S(=O)(=O)NC4CN(CCCO)C4)ccc3OCC)nn12` : value?
< 0.01 µM

human PDE-5A1 (Homo sapiens, UniProt O76074) / IC50 / `CCCc1nn(C)c2c(=O)[nH]c(-c3cc(S(=O)(=O)NC4CN(CCCCO)C4)ccc3OCC)nc12` : value?
0.01 to 0.1 µM

human PDE-5A1 (Homo sapiens, UniProt O76074) / IC50 / `CCCc1nn(C)c2c(=O)[nH]c(-c3cc(S(=O)(=O)N4CC(CN)C4)ccc3OCC)nc12` : value?
> 0.1 µM

human PDE-5A1 (Homo sapiens, UniProt O76074) / IC50 / `CCCc1nn(C)c2c(=O)[nH]c(-c3cc(S(=O)(=O)N4CC(N(C)CCO)C4)ccc3OCC)nc12` : value?
< 0.01 µM

human PDE-5A1 (Homo sapiens, UniProt O76074) / IC50 / `CCCc1nn(C)c2c(=O)[nH]c(-c3cc(S(=O)(=O)N4CC(CN5CC(CCO)C5)C4)ccc3OCC)nc12` : value?
0.01 to 0.1 µM

human PDE-5A1 (Homo sapiens, UniProt O76074) / IC50 / `CCCc1nc(C)c2c(=O)[nH]c(-c3cc(S(=O)(=O)N4CC(NCCCO)C4)ccc3OCC)nn12` : value?
< 0.01 µM

human PDE-5A1 (Homo sapiens, UniProt O76074) / IC50 / `CCCc1nn(C)c2c(=O)[nH]c(-c3cc(S(=O)(=O)N4CC(OCCCCO[N+](=O)[O-])C4)ccc3OCC)nc12` : value?
0.01 to 0.1 µM

human PDE-5A1 (Homo sapiens, UniProt O76074) / IC50 / `CCCc1nn(C)c2c(=O)[nH]c(-c3cc(S(=O)(=O)N4CC(OCCCO[N+](=O)[O-])C4)ccc3OCC)nc12` : value?
0.01 to 0.1 µM

human PDE-5A1 (Homo sapiens, UniProt O76074) / IC50 / `CCCc1nn(C)c2c(=O)[nH]c(-c3cc(S(=O)(=O)N4CC(O[N+](=O)[O-])C4)ccc3OCC)nc12` : value?
0.01 to 0.1 µM

human PDE-5A1 (Homo sapiens, UniProt O76074) / IC50 / `CCCc1nn(C)c2c(=O)[nH]c(-c3cc(S(=O)(=O)N4CC(N(C)CCCO)C4)ccc3OCC)nc12` : value?
< 0.01 µM

human PDE-5A1 (Homo sapiens, UniProt O76074) / IC50 / `CCCc1nc(C)c2c(=O)[nH]c(-c3cc(S(=O)(=O)N4CC(CN)C4)ccc3OCC)nn12` : value?
< 0.01 µM

human PDE-5A1 (Homo sapiens, UniProt O76074) / IC50 / `CCCc1nn(C)c2c(=O)[nH]c(-c3cc(S(=O)(=O)NC4CN(CCCO[N+](=O)[O-])C4)ccc3OCC)nc12` : value?
0.01 to 0.1 µM

Source of measurements: patent US20220153746A1
